- Test system: Mast/stem cell growth factor receptor Kit (Homo sapiens) (UniProt P10721);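 note: values are mean inhibition of KIT, from the GSK PKIS dataset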
- Sequence (P10721 whole entry): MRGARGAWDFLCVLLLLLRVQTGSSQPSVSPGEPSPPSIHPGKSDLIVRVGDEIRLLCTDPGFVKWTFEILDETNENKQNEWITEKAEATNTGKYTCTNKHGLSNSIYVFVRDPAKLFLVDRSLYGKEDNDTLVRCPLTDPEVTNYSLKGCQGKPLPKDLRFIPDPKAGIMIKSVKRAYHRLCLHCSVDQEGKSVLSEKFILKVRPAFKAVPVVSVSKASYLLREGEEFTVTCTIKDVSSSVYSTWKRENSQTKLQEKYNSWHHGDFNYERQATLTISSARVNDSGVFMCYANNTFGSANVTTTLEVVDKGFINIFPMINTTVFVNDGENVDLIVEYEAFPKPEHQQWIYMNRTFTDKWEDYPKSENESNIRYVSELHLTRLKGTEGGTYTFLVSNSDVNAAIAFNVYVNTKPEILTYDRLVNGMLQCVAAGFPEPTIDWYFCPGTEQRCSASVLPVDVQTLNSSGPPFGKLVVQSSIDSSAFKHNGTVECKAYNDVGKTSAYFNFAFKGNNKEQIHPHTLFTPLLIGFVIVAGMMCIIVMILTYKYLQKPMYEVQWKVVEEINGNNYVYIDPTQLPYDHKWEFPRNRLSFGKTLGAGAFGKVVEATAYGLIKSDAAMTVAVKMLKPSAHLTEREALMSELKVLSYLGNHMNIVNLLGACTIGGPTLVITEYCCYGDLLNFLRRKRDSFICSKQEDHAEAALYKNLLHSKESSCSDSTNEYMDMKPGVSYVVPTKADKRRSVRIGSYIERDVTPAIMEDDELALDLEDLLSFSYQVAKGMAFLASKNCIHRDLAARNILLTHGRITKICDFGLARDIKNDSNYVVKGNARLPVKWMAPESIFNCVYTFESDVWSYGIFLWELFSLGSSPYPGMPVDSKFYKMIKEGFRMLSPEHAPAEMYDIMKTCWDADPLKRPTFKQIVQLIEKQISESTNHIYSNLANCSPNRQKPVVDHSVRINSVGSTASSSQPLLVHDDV
- Test parameters: at 0.1 µM
Measured quantity: inhibition (%)
Write the number in % without appending the unit.

Solved entries (count: 6):
- CC(C)c1ccc(Nc2nccc(-c3cnn4ncccc34)n2)cc1: 68.6
- COC(=O)Nc1nc2cc(Oc3ccc(NC(=O)Nc4cccc(Br)c4)cc3)ccc2[nH]1: 84.5
- COC(=O)c1cncc(/C=C/c2c(C)cc(O)cc2C)c1: 32.9
- O=C(Nc1ccc(Oc2ccc3[nH]c(NC(=O)c4ccco4)nc3c2)cc1)Nc1cc(C(F)(F)F)ccc1F: 30.5
- c1ccc(Nc2ncc(-c3ccccc3)o2)cc1: 30.9
- NS(=O)(=O)c1cccc(Nc2cc(-c3ccc(F)cc3)n[nH]2)c1: 34.5

Below: the item to evaluate.
Exercise: Given the molecule c1ccc(Cc2nc3ccc(Nc4ncnc5ccccc45)cc3[nH]2)cc1 , what is its reported inhibition?
Key: 6.44
